# target_entity: IL-17A(FLAG-Tagged): IL-17RA(His-Tagged) (Homo sapiens, UniProt Q16552, K93Q)
# Sequence (Q16552 with tags, fused parts or gaps K93Q): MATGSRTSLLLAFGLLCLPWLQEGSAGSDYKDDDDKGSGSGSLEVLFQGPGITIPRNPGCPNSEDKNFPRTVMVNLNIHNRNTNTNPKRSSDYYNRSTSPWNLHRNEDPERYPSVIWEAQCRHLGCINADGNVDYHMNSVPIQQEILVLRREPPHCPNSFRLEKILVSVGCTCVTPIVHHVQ
# experiment_summary: IL-17A(FLAG-Tagged): IL-17RA(His-Tagged) Binding Disruption Eu-HTRF Assay
# study_conditions: IL-17A/IL-17RA binding disruption, simple average if tested more than once
reported_property: IC50 (µM)
Report the value in µM with no unit label.

[[record]]
molecule = "Cc1nonc1C(=O)N[C@H](c1cn2ncc([C@H](NC(=O)CC(C)(F)F)C3CC3)cc2n1)C1CCC(F)(F)CC1"
test_result = 0.21

[[record]]
molecule = "CO[C@@H](C)[C@@H](NC(=O)CC1CC(F)(F)C1)c1cnn2cc([C@@H](NC(=O)c3ccnn3C(C)C)C3CCC(F)(F)CC3)nc2c1"
test_result = 0.31

[[record]]
molecule = "CC(C)Oc1conc1C(=O)N[C@H](c1cn2ncc([C@H](NC(=O)CCC(F)(F)F)C3CC3)cc2n1)C1CCC(F)(F)CC1"
test_result = 0.046


Task: Retrieve IC50 on IL-17A(FLAG-Tagged): IL-17RA(His-Tagged) (Homo sapiens, UniProt Q16552, K93Q); query CCOCC(NC(=O)CC1CC(F)(F)C1)c1cnn2cc([C@@H](NC(=O)c3nonc3C3CC3)C3CCC(F)(F)CC3)nc2c1 (single isomer, unassigned) [Example 527]
Output: 0.057

Task: Retrieve IC50 on IL-17A(FLAG-Tagged): IL-17RA(His-Tagged) (Homo sapiens, UniProt Q16552, K93Q); query CC1(C)CC1C(=O)N[C@H](c1cn2ncc([C@H](NC(=O)CCC(F)(F)F)C3CC3)cc2n1)C1CCC(F)(F)CC1 (stereo partly drawn)
Output: 0.83

Task: Retrieve IC50 on IL-17A(FLAG-Tagged): IL-17RA(His-Tagged) (Homo sapiens, UniProt Q16552, K93Q); query O=C(CCC(F)(F)F)N[C@@H](c1cnn2cc([C@@H](NC(=O)c3nocc3CC(F)(F)F)C3CCC(F)(F)CC3)nc2c1)C1CC1
Output: 0.06

Task: Retrieve IC50 on IL-17A(FLAG-Tagged): IL-17RA(His-Tagged) (Homo sapiens, UniProt Q16552, K93Q); query O=C(CCC(F)(F)F)N[C@@H](c1cnn2cc([C@@H](NC(=O)c3cnn(CCN4CC(F)(F)C4)n3)C3CCC(F)(F)CC3)nc2c1)C1CC1
Output: 0.92

Task: Retrieve IC50 on IL-17A(FLAG-Tagged): IL-17RA(His-Tagged) (Homo sapiens, UniProt Q16552, K93Q); query Cc1nonc1C(=O)N[C@H](c1cn2ncc([C@H](NC(=O)C(C)CC(F)(F)F)C3CC3)cc2n1)C1CCC(F)(F)CC1 (single isomer, unassigned) [Example 346]
Output: 0.15

* * *

# target_entity: IL-17A(FLAG-Tagged): IL-17RA(His-Tagged) (Homo sapiens, UniProt Q16552, K93Q)
# experiment_summary: IL-17A(FLAG-Tagged): IL-17RA(His-Tagged) Binding Disruption Eu-HTRF Assay
# study_conditions: IL-17A/IL-17RA binding disruption, simple average if tested more than once
Please use MET for IC50 under 100 nM and NOT MET for everything else, ties included.

[[record]]
compound = "Cc1nonc1C(=O)N[C@H](c1cn2ncc([C@H](NC(=O)C(C)(C)CC(F)F)C3CC3)cc2n1)C1CCC(F)(F)CC1 [Example 328]"
category = "NOT MET"

[[record]]
compound = "CC(C)c1nonc1C(=O)N[C@H](c1cn2ncc([C@H](NC(=O)CCC(F)(F)F)C3CC3)cc2n1)C1CCC(F)(F)CC1 [Example 379]"
category = "MET"

[[record]]
compound = "O=C(CCC(F)(F)F)N[C@@H](c1cnn2cc([C@@H](NC(=O)c3nonc3OCC(F)F)C3CCC(F)(F)CC3)nc2c1)C1CC1 [Example 383]"
category = "MET"

[[record]]
compound = "O=C(CCC(F)(F)F)N[C@@H](c1cnn2cc([C@@H](NC(=O)c3cnn(CCC(F)F)n3)C3CCC(F)(F)CC3)nc2c1)C1CC1 [Example 32]"
category = "NOT MET"

[[record]]
compound = "Cc1cccc(C(=O)N[C@H](c2cn3ncc([C@H](NC(=O)CCC(F)(F)F)C4CC4)cc3n2)C2CCC(F)(F)CC2)n1 [Example 224]"
category = "NOT MET"


In the following, a different compound is considered.
Task: Please check: IC50 for CCn1nncc1C(=O)N[C@H](c1cn2ncc([C@H](NC(=O)CCC(F)(F)F)C3CC3)cc2n1)C1CCC(F)(F)CC1 [Example 58] , strictly under 100 nM or not?
Output: MET
